TESTED_SYSTEM: T1, VLP-hCLDN6 (human) (UniProt P56747)
T1 sequence: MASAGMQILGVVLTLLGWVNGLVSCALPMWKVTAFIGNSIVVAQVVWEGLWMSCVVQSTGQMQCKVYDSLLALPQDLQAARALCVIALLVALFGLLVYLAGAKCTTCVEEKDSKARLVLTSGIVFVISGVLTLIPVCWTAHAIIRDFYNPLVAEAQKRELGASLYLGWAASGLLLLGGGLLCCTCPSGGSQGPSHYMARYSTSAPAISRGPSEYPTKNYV
ASSAY_DETAILS: ELISA, coated VLP-hCLDN6, 100 ul antibody sample (second well), HRP-Protein A
The binders listed here are annotated with their OD450.
Enter the number alone.

Example entries begin here.
BINDER	NUMERIC_READOUT
humanized antibody hAb-11 (antibody, V domains shown) VH: EVKLVESGGGLVKPGGSLRLSCAASGFTFNSYTMSWVRQTPAKRLEWVVTISSGGGRTYYPDSVKGRFTISRDNAKNTLYLQMSSLRAEDTAVYYCIRGDYRYDGFAYWGQGTLVTVSS VL: DIQMTQSPSSLSASVGDRVTITCRASENIDSYLAWYQQKPGKSPQLLVYASTLLQDGVPSRFSGSRSGTQFTLTISSLQPEDVARYYCQHYYSIPYTFGSGTKLEIK	1.8
humanized antibody hAb-8 (antibody, V domains shown) VH: EVKLVESGGGLVKPGGSLRLSCAASGFTFNSYTMSWVRQAPGKRLEWVVTISSGGGRTYYPDSVKGRFTISRDNAKNTLYLQMSSLRAEDTAVYYCIRGDYRYDGFAYWGQGTLVTVSS VL: DIQMTQSPSSLSASVGDRVTITCRASENIDSYLAWYQQKPGKSPQLLVYASTLLQDGVPSRFSGSRSGTQFTLTISSLQPEDFATYYCQHYYSIPYTFGSGTKLEIK	1.88
humanized antibody hAb-20 (antibody, V domains shown) VH: EVKLVESGGGLVQPGGSLRLSCAASGFTFNSYTMSWVRQTPAKRLEWVVTISSGGGRTYYPDSVKGRFTISRDNAKNTLYLQMSSLRAEDTAVYYCIRGDYRYDGFAYWGQGTLVTVSS VL: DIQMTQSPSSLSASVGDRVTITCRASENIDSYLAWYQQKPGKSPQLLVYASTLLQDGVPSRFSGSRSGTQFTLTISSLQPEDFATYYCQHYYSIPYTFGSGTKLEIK	1.68
humanized antibody hAb-16 (antibody, V domains shown) VH: EVKLVESGGGLVQPGGSLRLSCAASGFTFNSYTMSWVRQAPGKRLEWVVTISSGGGRTYYPDSVKGRFTISRDNAKNTLYLQMSSLRAEDTAVYYCIRGDYRYDGFAYWGQGTLVTVSS VL: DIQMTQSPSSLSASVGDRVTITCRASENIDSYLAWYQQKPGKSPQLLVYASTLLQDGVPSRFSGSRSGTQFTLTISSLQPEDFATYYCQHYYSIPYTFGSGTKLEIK	1.71

Now consider the entry below.
Which OD450 is reported for this binder? humanized antibody hAb-12 (antibody, V domains shown) VH: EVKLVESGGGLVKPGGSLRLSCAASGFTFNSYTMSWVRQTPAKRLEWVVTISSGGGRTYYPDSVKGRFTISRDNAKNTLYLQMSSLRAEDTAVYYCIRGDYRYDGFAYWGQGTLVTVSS VL: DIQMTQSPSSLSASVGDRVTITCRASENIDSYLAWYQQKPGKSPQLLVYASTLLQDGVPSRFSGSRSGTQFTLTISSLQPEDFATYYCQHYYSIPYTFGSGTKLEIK
1.67
